# study_system: BRD4 BD1 (Homo sapiens, UniProt O60885)
# protocol_notes: AlphaScreen binding assay, BRD4 Bromodomain 1
pIC50: −log10 of the molar value.
readout_kind: pIC50

# count of solved cases: 6
Lookup: Query (molecule): CCOC(=O)N1C[C@H](C)N(C(C)=O)c2ccc(-c3cc(N4CCCS4(=O)=O)cc(C(F)(F)F)c3)cc21 [Example I-1165] ; field requested: pIC50
Found: 5.00 to 6.00

Lookup: Next entry: CCOC(=O)N1C[C@H](C)N(C(C)=O)c2ccc(-c3cccc(S(C)(=O)=O)c3)cc21 [Example I-1052]
Found: 5.00 to 6.00

Lookup: Next entry: CC(=O)N1c2ccccc2N(C(=O)Cc2cccs2)C[C@@H]1C [Example I-731]
Found: < 5.00

Lookup: Next entry: CC(=O)N1c2ccc(-c3ccc(S(C)(=O)=O)cc3)cc2N(C(=O)c2ccc(F)cc2)C[C@@H]1C [Example I-878]
Found: < 5.00

Lookup: Next entry: CC(=O)N1c2ccc(-c3cnn(C4CC4)c3)cc2N(c2n[nH]c3ccccc23)C[C@@H]1C [Example I-93]
Found: 6.00 to 7.00

Lookup: Next entry: CC(=O)N1c2ccccc2N(C(=O)c2cc3ccccc3[nH]2)CC1C (stereo not drawn) [Example I-730]
Found: < 5.00

Next:
Lookup: Query (molecule): CC(=O)N1c2ccc(-c3ccc(NS(=O)(=O)C4CC4)cc3)cc2N(C(=O)OC(C)C)C[C@@H]1C [Example I-347] ; field requested: pIC50
Found: > 7.00

Lookup: Next entry: CC(=O)N1c2ccc(-c3cnn(CCC#N)c3)cc2N(C(=O)Oc2ccc(F)cc2F)C[C@@H]1C [Example I-1012]
Found: 6.00 to 7.00

Lookup: Next entry: C[C@H]1CN(C(=O)OC2COC2)c2cc(-c3cnn(C4CC4)c3)ccc2N1C(=O)C1CC1 [Example I-998]
Found: 5.00 to 6.00

====

# study_system: BRD4 BD2 (Homo sapiens, UniProt O60885)
# protocol_notes: AlphaScreen binding assay, BRD4 Bromodomain 2
pIC50: −log10 of the molar value.
Reported pIC50 values follow for various molecules

# count of solved cases: 3
Lookup: Query (molecule): `CC(=O)N1c2ccc(-c3cnn(-c4nc5ccccc5o4)c3)cc2N(c2nc3ccccc3o2)C[C@@H]1C` ; field requested: pIC50
Found: < 6.30

Lookup: Next entry: `COC(=O)N1c2ccc(-c3cnn(C4CC4)c3)cc2N(C(=O)OC2COC2)C[C@@H]1C`
Found: 6.30 to 7.30

Lookup: Next entry: `COc1ccc(S(=O)(=O)N2C[C@H](C)N(C(C)=O)c3ccccc32)cc1`
Found: < 6.30

Next:
Lookup: Query (molecule): `CC(=O)N1c2ccc(-c3cnn(CC4CCS(=O)(=O)CC4)c3)cc2N(C(=O)C2CC2)C[C@@H]1C` ; field requested: pIC50
Found: 6.30 to 7.30

Lookup: Next entry: `C[C@H]1CN(c2nc3ccccc3o2)c2cc(-c3cnn(C4CC4)c3)ccc2N1C(=O)C1CC1`
Found: 6.30 to 7.30

Lookup: Next entry: `CNC(=O)N1C[C@H](C)N(C(C)=O)c2ccc(-c3ccc(S(C)(=O)=O)cc3)cc21`
Found: < 6.30

Lookup: Next entry: `CC(=O)N1c2ccc(-c3ccc(NS(C)(=O)=O)cc3)cc2N(C(=O)OC2CC(F)(F)C2)C[C@@H]1C`
Found: < 6.30

The measurements presented in this section are drawn from patent US10703764B2.
